Biological target: 5 HT2C receptor (Homo sapiens)
Sequence (P28335 33-458): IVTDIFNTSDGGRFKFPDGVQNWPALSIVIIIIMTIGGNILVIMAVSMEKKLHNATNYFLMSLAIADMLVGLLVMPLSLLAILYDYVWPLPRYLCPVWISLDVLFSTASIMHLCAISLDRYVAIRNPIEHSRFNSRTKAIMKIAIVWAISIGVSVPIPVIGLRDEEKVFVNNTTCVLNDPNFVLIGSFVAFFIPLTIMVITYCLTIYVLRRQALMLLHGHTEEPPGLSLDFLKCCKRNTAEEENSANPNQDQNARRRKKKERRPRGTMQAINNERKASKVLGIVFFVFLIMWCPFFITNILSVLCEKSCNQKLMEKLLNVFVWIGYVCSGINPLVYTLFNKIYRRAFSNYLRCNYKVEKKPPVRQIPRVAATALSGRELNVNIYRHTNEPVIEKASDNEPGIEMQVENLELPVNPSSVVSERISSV
Reported pIC50 is given for each of the following compounds.
Lab note: report pIC50 as minus log10 of the concentration in molar units, number only.

See these solved cases before continuing.
Compound: CN1CCN(Cc2cnn(-c3ccc(-c4ccc5c(c4)OCCO5)cc3)c2-c2ccco2)CC1
Experimental value: 6.46

Compound: Cc1ccoc1-c1c(CN2CCC(O)C2)cnn1-c1ccc(-c2ccc(F)cc2)cc1 (stereo not drawn)
Experimental value: 6.00

Compound: COc1ccc(-c2ccc(-n3ncc(CN4CCN(C)CC4)c3-c3ccccc3F)cc2)cc1F
Experimental value: 6.12

Compound: Cc1ccoc1-c1c(CN(C)C)cnn1-c1ccc(-c2ccc(F)cc2)cc1
Experimental value: 6.44

Compound: Cc1ccc(-c2ccc(-n3ncc(CN4CCN(C)CC4)c3-c3ccccc3F)cc2)cc1F
Experimental value: 6.21

Next compound, please.
-- ask Look up and report measured pIC50 for this entry: CN1CCC(N(C)Cc2cnn(-c3ccc(-c4ccc(F)cc4)cc3)c2-c2ccco2)C1 (stereo not drawn) [Example 543]
-- reply 6.43

----------
Reported IC50 is given for each of the following compounds.
Molecular target: 5-HT2A receptors (UniProt P14842)
Experiment: in-vitro affinity to 5-HT2A receptors, [3H]ketanserine displacement (Example A1)
Type: binding
Quick note: unit goes after the number.

See these solved cases before continuing.
Compound: CN1CCN(Cc2cnn(-c3ccc(-c4ccsc4)cc3)c2-c2ccccc2)CC1 [Example 610]
Experimental value: 31 nM

Compound: CN(C)CCN(C)Cc1cnn(-c2ccc(-c3ccc(F)cc3)cc2)c1-c1ccco1 [Example 635]
Experimental value: 41 nM

Compound: CC(C)(C)OC(=O)NC1CCN(Cc2cnn(-c3ccc(-c4cccc(F)c4)cc3)c2-c2ccco2)CC1 [Example 608]
Experimental value: 29 nM

Next compound, please.
-- ask Look up and report measured IC50 for this entry: CN1CCN(Cc2cnn(-c3ccc(-c4ccncc4)cc3)c2-c2ccccc2F)CC1 [Example 661]
-- reply 77 nM

----------
Target: 5-HT2A receptors (UniProt P14842)
Assay metric: pIC50
Lab note: report pIC50 as minus log10 of the concentration in molar units, number only.

Compound: Fc1ccc(-c2ccc(-n3ncc(CN4CCC(COc5ccccn5)CC4)c3-c3ccco3)cc2)cc1
Assay system: 5-HT2A receptors (UniProt P14842)
Assay metric: pIC50
Experimental value: 8.05
//
Compound: Cc1ccoc1-c1c(CN2CCN(C)CC2)cnn1-c1ccc(-c2ccc(F)cc2)cc1
Assay system: 5-HT2A receptors (UniProt P14842)
Assay metric: pIC50
Experimental value: 8.05
//
Compound: Fc1ccc(-c2ccc(-n3ncc(CNC4CC4)c3-c3ccco3)cc2)cc1
Assay system: 5-HT2A receptors (UniProt P14842)
Assay metric: pIC50
Experimental value: 7.77

Next compound, please.
-- ask Look up and report measured pIC50 for this entry: OCC1CCN(Cc2cnn(-c3ccc(-c4ccc(F)cc4)cc3)c2-c2ccco2)C1 (stereo not shown)
-- reply 7.96

----------
Assay read-out pIC50; system under study: 5-HT2A receptors (UniProt P14842).
Lab note: report pIC50 as minus log10 of the concentration in molar units, number only.

Molecule: CN(C)Cc1cnn(-c2ccc(-c3cccc(F)c3)cc2)c1-c1ccco1
pIC50: 8.47
--
Molecule: CC(C)(C)OC(=O)N1CCN(Cc2cnn(-c3ccc(-c4ccc5c(c4)OCO5)cc3)c2-c2ccco2)CC1
pIC50: 8.32
--
Molecule: CN1CCN(Cc2cnn(-c3ccc(-c4ccc(N(C)C)cc4)cc3)c2-c2ccccc2F)CC1
pIC50: 7.44
--
Molecule: CCN1CCN(Cc2cnn(-c3ccc(-c4cccc(F)c4)cc3)c2-c2ccco2)CC1
pIC50: 7.92
--
Molecule: COc1ccc(-c2ccc(-n3ncc(CNCc4cc[nH]n4)c3-c3ccco3)cc2)cc1
pIC50: 7.15

-- ask System 5-HT2A receptors (UniProt P14842). Read-out pIC50. Item COc1ccc(-c2ccc(-n3ncc(CCN4CCC(O)C4)c3-c3ccco3)cc2)cc1 (stereo not shown) . Report value.
-- reply 7.92

-- ask System 5-HT2A receptors (UniProt P14842). Read-out pIC50. Item OC1CCN(Cc2cnn(-c3ccc(-c4cccc(F)c4)cc3)c2-c2ccco2)C1 (stereo not shown) . Report value.
-- reply 8.04

-- ask System 5-HT2A receptors (UniProt P14842). Read-out pIC50. Item Cc1noc(C)c1-c1c(CN2CCN(C)CC2)cnn1-c1ccc(-c2ccc(F)cc2)cc1 . Report value.
-- reply 6.49

-- ask System 5-HT2A receptors (UniProt P14842). Read-out pIC50. Item CCN1CCN(Cc2cnn(-c3ccc(-c4ccc(F)cc4)cc3)c2-n2cccc2)CC1 . Report value.
-- reply 7.49

-- ask System 5-HT2A receptors (UniProt P14842). Read-out pIC50. Item OCCOCCNCc1cnn(-c2ccc(-c3ccc(F)cc3)cc2)c1-c1ccco1 . Report value.
-- reply 7.04

-- ask System 5-HT2A receptors (UniProt P14842). Read-out pIC50. Item CN1CCN(Cc2cnn(-c3ccc(-c4cc(F)ccc4F)cc3)c2-c2ccco2)CC1 . Report value.
-- reply 7.44

-- ask System 5-HT2A receptors (UniProt P14842). Read-out pIC50. Item CCN(CC)Cc1cnn(-c2ccc(-c3ccc(F)cc3)cc2)c1-c1ccoc1 . Report value.
-- reply 7.11

-- ask System 5-HT2A receptors (UniProt P14842). Read-out pIC50. Item COc1ccc(-c2ccc(-n3ncc(CN4CCC(O)C4)c3-c3ccco3)cc2)cc1 (stereo not shown) . Report value.
-- reply 8.00

----------
Sequence of the target: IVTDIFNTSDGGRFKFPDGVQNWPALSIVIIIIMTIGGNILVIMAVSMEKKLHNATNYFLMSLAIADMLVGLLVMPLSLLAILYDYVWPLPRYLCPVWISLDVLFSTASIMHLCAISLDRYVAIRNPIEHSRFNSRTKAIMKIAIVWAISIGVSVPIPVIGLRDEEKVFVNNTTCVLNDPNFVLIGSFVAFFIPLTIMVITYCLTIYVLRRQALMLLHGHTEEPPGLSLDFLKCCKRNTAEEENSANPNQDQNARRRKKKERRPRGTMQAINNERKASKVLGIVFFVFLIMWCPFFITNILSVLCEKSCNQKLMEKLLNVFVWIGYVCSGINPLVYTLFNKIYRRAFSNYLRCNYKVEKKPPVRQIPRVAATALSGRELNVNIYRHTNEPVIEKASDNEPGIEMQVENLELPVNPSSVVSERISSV
Assay metric: IC50 (nM)
# value in nM; strip the unit string

See these solved cases before continuing.
Cpd smiles: CN1CCN(Cc2cnn(-c3ccc(-c4ccc(Oc5ccccc5)cc4)cc3)c2-c2ccccc2F)CC1
IC50 [nM]: 970
//
Cpd smiles: Fc1ccccc1-c1c(CN2CCNCC2)cnn1-c1ccc(C(F)(F)F)cn1
IC50 [nM]: 1000

-- ask Look up and report measured IC50 for this entry: CCN1CCN(Cc2cnn(-c3ccc(-c4ccc(F)cc4)cn3)c2-c2ccco2)CC1
-- reply 1000

----------
Molecular target: 5 HT2C receptor (Homo sapiens, UniProt P28335)
Sequence (P28335 33-458): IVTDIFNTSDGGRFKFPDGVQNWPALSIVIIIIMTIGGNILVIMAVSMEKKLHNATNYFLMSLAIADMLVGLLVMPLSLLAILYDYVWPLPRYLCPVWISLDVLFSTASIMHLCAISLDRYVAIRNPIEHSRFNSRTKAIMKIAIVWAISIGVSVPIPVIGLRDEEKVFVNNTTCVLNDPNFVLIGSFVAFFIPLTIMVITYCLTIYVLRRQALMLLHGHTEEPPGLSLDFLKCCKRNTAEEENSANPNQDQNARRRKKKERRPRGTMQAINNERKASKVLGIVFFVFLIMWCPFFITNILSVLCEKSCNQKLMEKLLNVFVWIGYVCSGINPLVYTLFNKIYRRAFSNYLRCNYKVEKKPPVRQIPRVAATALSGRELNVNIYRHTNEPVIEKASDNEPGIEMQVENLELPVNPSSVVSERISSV
Reported IC50 is given for each of the following compounds.
# value in nM; strip the unit string

-- ask Look up and report measured IC50 for this entry: CN1CCN(Cc2cnn(-c3ccc(-c4ccc(F)cc4)cc3)c2-c2cccc(Cl)c2)CC1
-- reply 1000

-- ask Look up and report measured IC50 for this entry: c1coc(-c2c(CN3CCNCC3)cnn2-c2ccc(-c3ccc4c(c3)OCO4)cc2)c1
-- reply 110

-- ask Look up and report measured IC50 for this entry: CCN(CC)Cc1cnn(-c2ccc(-c3cccc(F)c3)cc2)c1-c1ccco1
-- reply 1000

-- ask Look up and report measured IC50 for this entry: OC1CCN(Cc2cnn(-c3ccc(-c4ccc(F)cc4)cc3)c2-c2ccccc2Cl)C1 (stereo not drawn)
-- reply 1000

-- ask Look up and report measured IC50 for this entry: CCN1CCN(Cc2cnn(-c3ccc(-c4ccc(F)cc4)cc3)c2-c2occc2C)CC1
-- reply 1000

-- ask Look up and report measured IC50 for this entry: COc1ccc(-c2c(CN3CCN(CCN(C)C)CC3)cnn2-c2ccc(-c3ccc(F)cc3)cc2)cc1
-- reply 1000
